Biological target: T1, canine NGF tagged at the C-terminus with the Flag tag (canine, UniProt A0A8I3PYI3 122-241)
T1 construct: mature; Expressed with baculovirus technology; also called feline NGF (processed form identical)
T1 sequence (A0A8I3PYI3 entry or part of it): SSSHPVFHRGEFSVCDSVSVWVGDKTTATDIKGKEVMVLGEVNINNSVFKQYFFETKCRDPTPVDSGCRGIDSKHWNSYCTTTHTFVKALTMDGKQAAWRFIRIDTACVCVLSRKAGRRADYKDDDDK
Assay: SPR off-rate screen, Fab-SASA on BSA chip
Listed below: kon values for each entry.
Give just the numeric value; M⁻¹ s⁻¹ need not be written.

Exercise: Return reported kon; argument: felinized clone 101 Fab-SASA variant S56E (VL) (Fab, V domains shown, not shown: small tags and cut ends) VH: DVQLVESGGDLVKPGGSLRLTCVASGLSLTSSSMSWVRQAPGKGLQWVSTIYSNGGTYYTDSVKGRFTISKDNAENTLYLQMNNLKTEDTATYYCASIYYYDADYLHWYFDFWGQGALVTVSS VL: EIQMTQSPTSLSASVGDRVTITCRASEGISNNLSWYQQTPGKAPKLLIYATSNLHEGVPSRFSGSGSGTDFTLTISSLQPEDFATYYCQQGYKWPLTFGGGTKLEITR
Solution: 370000

Exercise: Using the record for felinized clone 101 Fab-SASA variant S30L (VL) (Fab, V domains shown, not shown: small tags and cut ends) VH: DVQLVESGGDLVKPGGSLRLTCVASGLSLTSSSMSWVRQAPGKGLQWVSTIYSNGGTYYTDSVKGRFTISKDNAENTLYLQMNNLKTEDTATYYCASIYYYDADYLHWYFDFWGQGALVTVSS VL: EIQMTQSPTSLSASVGDRVTITCRASEGILNNLSWYQQTPGKAPKLLIYATSNLHSGVPSRFSGSGSGTDFTLTISSLQPEDFATYYCQQGYKWPLTFGGGTKLEITR , report its kon.
Solution: 270000
